Hey, just so you know, these numbers are from ChEMBL document CHEMBL2057135.

# Test system: Aspergillus flavus
# experimentNotes: Antifungal activity against Aspergillus flavus KCCM 11899 after 2 days
# Type: functional
# conditionNotes: KCCM 11899, 48 h
valueType: log10(MIC) (log10 of the value in µg/mL)
Please interpret these as log10 of MIC where MIC is in µg/mL.

Request: Give the measured log10(MIC) of O=C(N/N=C/c1ccc(Cl)cc1)c1cc(-c2ccc(Cl)cc2)n[nH]1 .
Result: 1.40

Request: Give the measured log10(MIC) of O=C(N/N=C/c1ccccc1)c1cc(-c2ccc(Cl)cc2)n[nH]1 .
Result: 0.51

Request: Give the measured log10(MIC) of O=C(NN1C(=O)[C@H](Cl)[C@H]1c1ccccc1[N+](=O)[O-])c1cc(-c2ccc(Cl)cc2)n[nH]1 (racemic) .
Result: 1.70

Request: Give the measured log10(MIC) of O=C(NN1C(=O)[C@H](Cl)[C@H]1c1ccccc1)c1cc(-c2ccc(Cl)cc2)n[nH]1 (racemic) .
Result: 2.00

Request: Give the measured log10(MIC) of O=C(NN1C(=O)[C@H](Cl)[C@H]1c1ccccc1O)c1cc(-c2ccc(Cl)cc2)n[nH]1 (racemic) .
Result: 1.10

Request: Give the measured log10(MIC) of O=C(NN1C(=O)[C@H](Cl)[C@H]1c1ccccc1Cl)c1cc(-c2ccc(Cl)cc2)n[nH]1 (racemic) .
Result: 1.10

Request: Give the measured log10(MIC) of O=C(NN1C(=O)[C@H](Cl)[C@H]1c1ccc(O)cc1)c1cc(-c2ccc(Cl)cc2)n[nH]1 (racemic) .
Result: 1.10

Request: Give the measured log10(MIC) of O=C(N/N=C/c1ccccc1[N+](=O)[O-])c1cc(-c2ccc(Cl)cc2)n[nH]1 .
Result: 1.40

Request: Give the measured log10(MIC) of COc1cc([C@@H]2[C@@H](Cl)C(=O)N2NC(=O)c2cc(-c3ccc(Cl)cc3)n[nH]2)ccc1O (racemic) .
Result: 1.40

Request: Give the measured log10(MIC) of OC(Cn1cncn1)(Cn1cncn1)c1ccc(F)cc1F .
Result: 1.40

Request: Give the measured log10(MIC) of O=C(N/N=C/c1ccc(O)cc1)c1cc(-c2ccc(Cl)cc2)n[nH]1 .
Result: 1.70

Request: Give the measured log10(MIC) of O=C(N/N=C/c1ccccc1O)c1cc(-c2ccc(Cl)cc2)n[nH]1 .
Result: 0.80

Request: Give the measured log10(MIC) of COc1ccc(C2SCC(=O)N2NC(=O)c2cc(-c3ccc(Cl)cc3)n[nH]2)cc1OC (racemic) .
Result: 1.10

Request: Give the measured log10(MIC) of O=C(NN1C(=O)CSC1c1ccccc1)c1cc(-c2ccc(Cl)cc2)n[nH]1 (racemic) .
Result: 1.10

Request: Give the measured log10(MIC) of Nc1nc(=O)[nH]cc1F .
Result: 1.40

Request: Give the measured log10(MIC) of O=C(NN1C(=O)CSC1c1ccc(Cl)cc1)c1cc(-c2ccc(Cl)cc2)n[nH]1 (racemic) .
Result: 0.80

Request: Give the measured log10(MIC) of COc1cc(/C=N/NC(=O)c2cc(-c3ccc(Cl)cc3)n[nH]2)ccc1O .
Result: 1.10

Request: Give the measured log10(MIC) of O=C(NN1C(=O)[C@H](Cl)[C@H]1c1cccc([N+](=O)[O-])c1)c1cc(-c2ccc(Cl)cc2)n[nH]1 (racemic) .
Result: 1.70
